- Tested on: MS2 coat protein
- Assay Comment: apparent KD of MS2 coat protein; higher = weaker reporter binding
- Condition Set: Eterna round: R107; input ligand: theophylline 20 uM
A collection of sequences and their measured apparent KD of MS2 coat protein
Your answer should be a plain number; it is taken to be in nM.

Input line: Query: apparent KD of MS2 coat protein; subject: UAUAUAUAACAUGAGGAUCACCCAUGUAAACGAGGACCGGUACGGCCGCCACUCGGCCGGCAAGGGAGAGGACGGGAAACCGUCG [ETA NP+V+V2 #26]
Output line: 23.1

Input line: Same question, UGAUACCAGUCGGCCGCCACUAUGCUAGAUACUAGCAAUAAAUGGGAACAUGAGGAUCACCCAUGUAGGACCGGGACUGGUAUCU this time
Output line: 42.9

Input line: Same question, UCAAGUGAACCAUGGAAACAUUCAAUAGAUACCAGCAUUAAAACCUGCCCUUGGCAGCUAUGAACAUGAGGAUCACCCAUGUGAA [theeternabot_exclusion_MS2_Theo_A_21] this time
Output line: 23.3

----------
- Tested on: MS2 coat protein
- Assay Comment: apparent KD of MS2 coat protein; designed switch direction (-1 OFF switch, 1 ON switch): -1; higher = weaker reporter binding
- Condition Set: Eterna round: R95; input ligand: microRNA oligo, concentration not stated
Observation Type: apparent KD of MS2 coat protein (nM)
Your answer should be a plain number; it is taken to be in nM.

- Seq: "AGUUGGCGAGGAUAUACAUGAGGAUCACCCAUGUGAAAUAUAAGAGUGAGGAAGAAAAGUAGAAGGCGCUGACA [Mat - Exclusion 3 - Mod of Salish D43] (puzzle: Exclusion 3)"
  Unit Of Measure: "nM"
  Assay Result: 80.4

Input line: Query: apparent KD of MS2 coat protein; subject: GAGGGACAUGAGGAUCACCCAUGUGAGGAUAUGUGAGAAGGAUUGGAGAGAAUAAGAAACAGAAGGCGCUGUAG [JR_Exclu1_Sub088] (puzzle: Exclusion 1)
Output line: 88.9

Input line: Same question, UAGAUGGGAGGAUAUACGUAGAUGCGGAUUCGUGUGGUGCUACAUGAGGAUCACCCAUGUAGAAGGCCCGUCUU [JL-ex2-2.25 Mayanne mod] (puzzle: Exclusion 2) this time
Output line: 15.6

Input line: Same question, AGUAGUUGUUUCCGUUCUUACAUGAGGAUCACCCAUGUUUCUUGUCGUGCUCGCGUUGCUCGUCAGACUACCAGAUG [salish99_TOv1_r3_060] (puzzle: Sensor v3, turn-off variant 1) this time
Output line: 57.8

Input line: Same question, AUUUUGUGAGGAUAUCAGGUGUGCUAGCGUACUGGUACAUCUGAGAAGGCACAUGAGGAUCACCCAUGUUUAUU [Mat - Exclusion 4 - Mod of JL - D39] (puzzle: Exclusion 4) this time
Output line: 25.6

Input line: Same question, AAAAAACAUGAGGAUCACCCAUGUCAGGAUAUCCGAAAAGAAAAAUAAAAAGAAAAAGGGAGAAGGGACAAAAA [April's ex-date #3] (puzzle: Exclusion 1) this time
Output line: 48.6

Input line: Same question, UAAAAUAGUGUGAGGAUAUGCUGGUCCUUGGAUCAGCAGAAGGCACAUGAGGAUCACCCAUGUAGUUAAUUUUA [Mat - Exclusion 4 - JL Mod - D23] (puzzle: Brourd's mod of Exclusion 4) this time
Output line: 30.8

Input line: Same question, CCGCAAAUGGAGGAUAUCGUAUCGGAUACGAUACGAGAAGGCUAUACAUGAGGAUCACCCAUGUGUCCUAGCGG [Fiskers Ex 6 - 46] (puzzle: Exclusion 6) this time
Output line: 11.4

Input line: Same question, AAGAGGCUAGGAUAUACAUGAGGAUCACCCAUGUGAGGGCACGGCCGGCGCGUGGCCGGUAGAAGGAGUCAAAA [Exc;s3-VIII] (puzzle: Exclusion 3) this time
Output line: 17.5

Input line: Same question, UGCAUGGUAGGAUAUACGGAACAUUAGGGUUUGUUAUGUGGACAUGAGGAUCACCCAUGUAGAAGGGCCGUGCU [JL-ex2-2.15 mat747 mod] (puzzle: Exclusion 2) this time
Output line: 40.4

Input line: Same question, UUUUAGUCAGGAUAUACAUUUUUUUAUUUAUUUAUAAUAUUACAUGAGGAUCACCCAUGUAGAAGGGACAUUUU [My Design] (puzzle: Exclusion 2) this time
Output line: 29.6
